FYI, the data here is from the FLAb antibody collection.

Reported patients with anti-drug antibodies is given for each of the following proteins.
protocol-details: patients with anti-drug antibodies; higher = more immunogenic
measured-endpoint: patients with anti-drug antibodies (%)

- protein: "unnamed (protein) chain 1: QVQLQESGPGLVKPSETLSLTCTVSGFSLTSYIVDWIRQPPGKGLEWIGVIWAGGSTGYNSALRSRVSITKDTSKNQFSLKLSSVTAADTAVYYCASAAYYSYYNYDGFAYWGQGTLVTVSS chain 2: DVVMTQSPLSLPVTLGQPASISCKSSQSLLYTDGKTYLYWFLQRPGQSPRRLIYLVSKLDSGVPDRFSGSGSGTDFTLKISRVEAEDVGVYYCLQSTHFPHTFGGGTKVEIK"
  readout-unit: "%"
  measured-number: 4
- protein: "unnamed (protein) chain 1: QVQLVESGGGLVKPGGSLRLSCAASGFTFSDYYMNWIRQAPGKGLEWVSYISSSGSIIYYADSVKGRFTISRDNAKNSLYLQMNSLRAEDTAVYYCAREGRIAARGMDVWGQGTTVTVSS chain 2: DIQMTQSPSSLSASVGDRVSITCRPSQSFSRYINWYQQKPGKAPKLLIHAASSLVGGVPSRFSGSGSGTDFTLTISSLQPEDFATYYCQQTYSNPPITFGQGTRLEMK"
  readout-unit: "%"
  measured-number: 2.9
- protein: "unnamed (protein) chain 1: EVQLVESGGGLVQPGGSLRLSCAASGYTFTSYWLHWVRQAPGKGLEWVGMIDPSNSDTRFNPNFKDRFTISADTSKNTAYLQMNSLRAEDTAVYYCATYRSYVTPLDYWGQGTLVTVSS chain 2: DIQMTQSPSSLSASVGDRVTITCKSSQSLLYTSSQKNYLAWYQQKPGKAPKLLIYWASTRESGVPSRFSGSGSGTDFTLTISSLQPEDFATYYCQQYYAYPWTFGQGTKVEIK"
  readout-unit: "%"
  measured-number: 11.9
